Biological target: human ether-à-go-go-related gene (hERG) potassium channel (human, UniProt Q12809);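 note: peak tail current of the secondary pulse compared with the same well before compound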
Sequence (Q12809 whole entry, looked up): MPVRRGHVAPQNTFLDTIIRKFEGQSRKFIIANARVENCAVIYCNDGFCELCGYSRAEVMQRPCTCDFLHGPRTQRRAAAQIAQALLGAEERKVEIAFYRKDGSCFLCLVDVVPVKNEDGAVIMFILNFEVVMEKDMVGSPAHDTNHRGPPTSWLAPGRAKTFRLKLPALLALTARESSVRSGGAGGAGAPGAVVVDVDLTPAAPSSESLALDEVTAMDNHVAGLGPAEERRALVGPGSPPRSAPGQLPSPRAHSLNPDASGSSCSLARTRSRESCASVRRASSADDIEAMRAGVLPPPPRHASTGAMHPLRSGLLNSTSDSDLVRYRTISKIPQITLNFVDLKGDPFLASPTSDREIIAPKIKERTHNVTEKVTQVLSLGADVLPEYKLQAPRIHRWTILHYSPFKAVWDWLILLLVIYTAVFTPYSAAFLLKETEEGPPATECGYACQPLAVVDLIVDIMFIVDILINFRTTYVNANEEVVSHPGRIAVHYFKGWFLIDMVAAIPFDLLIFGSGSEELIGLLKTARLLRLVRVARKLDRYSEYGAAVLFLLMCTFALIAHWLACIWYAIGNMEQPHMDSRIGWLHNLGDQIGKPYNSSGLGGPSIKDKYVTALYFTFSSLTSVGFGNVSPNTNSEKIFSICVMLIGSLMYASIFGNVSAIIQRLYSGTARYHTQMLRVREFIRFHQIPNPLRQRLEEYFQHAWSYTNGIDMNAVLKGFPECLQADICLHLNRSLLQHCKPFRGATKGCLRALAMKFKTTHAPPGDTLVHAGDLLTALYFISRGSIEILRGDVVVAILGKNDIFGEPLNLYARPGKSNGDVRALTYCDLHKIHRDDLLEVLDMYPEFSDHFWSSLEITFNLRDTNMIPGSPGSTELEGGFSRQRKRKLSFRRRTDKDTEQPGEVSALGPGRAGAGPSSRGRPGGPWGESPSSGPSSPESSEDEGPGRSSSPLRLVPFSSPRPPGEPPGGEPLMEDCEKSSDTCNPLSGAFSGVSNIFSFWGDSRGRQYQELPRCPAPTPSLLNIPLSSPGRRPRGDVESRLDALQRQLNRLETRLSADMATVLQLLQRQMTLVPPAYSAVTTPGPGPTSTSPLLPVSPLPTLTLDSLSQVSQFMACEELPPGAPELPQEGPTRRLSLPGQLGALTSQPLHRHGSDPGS
Assay: primary screen, population patch clamp on CHO cells stably expressing hERG; higher = less effect of the substance
In all, about 310,000 compounds went through this assay and about 14,000 (4.5%) showed an effect of 50% or more. The effect is printed as a negative number. Only a selection was taken, and strong results are over-represented in it overall.
Decision: hERG current change (%, negative = inhibition) at 10uM compared against -10%; not below it gives true, below it gives false.

Does the reported hERG current change (%, negative = inhibition) at 10uM for `O=C(Nc1ccc(Br)cc1Cl)c1cnccn1` fall at or above the -10% mark?
true

Confirm if hERG current change (%, negative = inhibition) at 10uM reported for the molecule `CCOC(=O)Oc1ccc2oc(=O)cc(C)c2c1` is -10% or above.
true

Does hERG current change (%, negative = inhibition) at 10uM meet or surpass -10% for `COCCn1nnnc1CN1CCC(C)CC1` ?
true

Confirm if hERG current change (%, negative = inhibition) at 10uM reported for the molecule `CS(=O)(=O)N(CC(=O)Nc1ccccc1-c1ccccc1)c1ccccc1` is -10% or above.
true

Reported hERG current change (%, negative = inhibition) at 10uM at or above -10%? `COc1ccccc1NC(=O)C[n+]1ccccc1C.[Cl-]`
true

Kindly determine if hERG current change (%, negative = inhibition) at 10uM recorded for `O=C1c2ccc(Cl)cc2S(=O)(=O)c2cccc(C(=O)N3CCN(c4ccc(Cl)cn4)CC3)c21` is above or exactly -10%.
false

In plain terms: is recorded hERG current change (%, negative = inhibition) at 10uM at least -10% for Cc1cccc(N2CCN(C(=O)C3CCCN(S(=O)(=O)c4c(C)noc4C)C3)CC2)c1C (centres unmarked) ?
false

Decide: hERG current change (%, negative = inhibition) at 10uM of `CCN1C(=O)/C(=C\c2ccco2)C(C(=O)OC)=C1C` >= -10%?
true

Could you please find out whether `CN(C)c1nc(N(C)C)nc(N(C#N)CCCl)n1` has hERG current change (%, negative = inhibition) at 10uM that meets -10% or exceeds it?
true

Test whether the molecule O=[N+]([O-])c1cccc(N(CC2CO2)S(=O)(=O)c2ccccc2)c1 (centres unmarked) records hERG current change (%, negative = inhibition) at 10uM of -10% or higher.
true

Is hERG current change (%, negative = inhibition) at 10uM at least -10%? Consider `COc1ccc(N2CCN(C(=O)C3CCN(S(=O)(=O)c4c(C)noc4/C=C/N(C)C)CC3)CC2)cc1`
false

Entry `N#Cc1cccnc1N1CCN(C(=O)c2ccc3c(c2)S(=O)(=O)c2ccccc2C3=O)CC1` : is its hERG current change (%, negative = inhibition) at 10uM no less than -10%?
false

Kindly determine if hERG current change (%, negative = inhibition) at 10uM recorded for `CC1CCN(C(=O)CSc2nnc(-c3ccncc3)n2C)CC1` is above or exactly -10%.
true

Is the recorded value of hERG current change (%, negative = inhibition) at 10uM equal to or greater than -10% for this molecule? `Brc1ccc(CSc2nnc(-c3ccccn3)n2Cc2ccco2)cc1`
false

Entry `COc1cc2ncnc(NCc3ccc(Cl)cc3)c2cc1OC` : is its hERG current change (%, negative = inhibition) at 10uM no less than -10%?
false

Does hERG current change (%, negative = inhibition) at 10uM meet or surpass -10% for `N#Cc1cccnc1N1CCN(C(=O)c2cccc3c2C(=O)c2ccc(Cl)cc2S3(=O)=O)CC1` ?
false

Does `N#CCCn1ncn(-c2ccccc2)c1=S` have a reported hERG current change (%, negative = inhibition) at 10uM of at least -10%?
true

hey, is hERG current change (%, negative = inhibition) at 10uM for this one >= -10%? `COc1cc2ncnc(NCc3ccc(C)cc3)c2cc1OC`
true

Is reported hERG current change (%, negative = inhibition) at 10uM greater than or equal to -10% here: COc1ccc(N2CCN(C(=O)C3CCCN(S(=O)(=O)c4c(C)noc4C)C3)CC2)cc1 (centres unmarked)
false
